test: Selectivity index, ratio of TC50 for human HepG2.2.15 cells to IC50 for Hepatitis B virus subtype adw2 infected in human HepG2.2.15 cells assessed as inhibition of HBeAg secretion
Result type: selectivity ratio
Answer as a number with no unit attached.

Quick one: selectivity ratio for `C=C1C[C@@]23CC[C@H]4[C@@](C)(CCC[C@@]4(C)N)[C@@H]2CC[C@]1(O)C3` ? 5.4

Quick one: selectivity ratio for `C=C1C[C@@]23CC[C@H]4[C@@](C)(CCC[C@@]4(C)NC(=O)c4ccc(C#N)cc4)[C@@H]2CC[C@]1(O)C3` ? 9.2

Quick one: selectivity ratio for `C=C1C[C@@]23CC[C@H]4[C@@](C)(CCC[C@@]4(C)NC(=O)c4ccc(OCC)cc4)[C@@H]2CC[C@]1(O)C3` ? 16.6

Quick one: selectivity ratio for `C=C1C[C@@]23CC[C@H]4[C@@](C)(CCC[C@@]4(C)N=C=O)[C@@H]2CC[C@]1(O)C3` ? 11.8

Quick one: selectivity ratio for C=C1C[C@@]23CC[C@H]4[C@@](C)(CCC[C@@]4(C)C(=O)O)[C@@H]2CC[C@]1(O)C3 [STEVIOL] ? 28.6

Quick one: selectivity ratio for `C=C1C[C@@]23CC[C@H]4[C@@](C)(CCC[C@@]4(C)NC(=O)NCCCC)[C@@H]2CC[C@]1(O)C3` ? 47.7

Quick one: selectivity ratio for `C=C1C[C@@]23CC[C@H]4[C@@](C)(CCC[C@@]4(C)NC(=O)c4ccc(I)cc4)[C@@H]2CC[C@]1(O)C3` ? 17.3
